- MEASUREMENT TARGET: UniProt:Q16832
- Sequence (Q16832 22-855): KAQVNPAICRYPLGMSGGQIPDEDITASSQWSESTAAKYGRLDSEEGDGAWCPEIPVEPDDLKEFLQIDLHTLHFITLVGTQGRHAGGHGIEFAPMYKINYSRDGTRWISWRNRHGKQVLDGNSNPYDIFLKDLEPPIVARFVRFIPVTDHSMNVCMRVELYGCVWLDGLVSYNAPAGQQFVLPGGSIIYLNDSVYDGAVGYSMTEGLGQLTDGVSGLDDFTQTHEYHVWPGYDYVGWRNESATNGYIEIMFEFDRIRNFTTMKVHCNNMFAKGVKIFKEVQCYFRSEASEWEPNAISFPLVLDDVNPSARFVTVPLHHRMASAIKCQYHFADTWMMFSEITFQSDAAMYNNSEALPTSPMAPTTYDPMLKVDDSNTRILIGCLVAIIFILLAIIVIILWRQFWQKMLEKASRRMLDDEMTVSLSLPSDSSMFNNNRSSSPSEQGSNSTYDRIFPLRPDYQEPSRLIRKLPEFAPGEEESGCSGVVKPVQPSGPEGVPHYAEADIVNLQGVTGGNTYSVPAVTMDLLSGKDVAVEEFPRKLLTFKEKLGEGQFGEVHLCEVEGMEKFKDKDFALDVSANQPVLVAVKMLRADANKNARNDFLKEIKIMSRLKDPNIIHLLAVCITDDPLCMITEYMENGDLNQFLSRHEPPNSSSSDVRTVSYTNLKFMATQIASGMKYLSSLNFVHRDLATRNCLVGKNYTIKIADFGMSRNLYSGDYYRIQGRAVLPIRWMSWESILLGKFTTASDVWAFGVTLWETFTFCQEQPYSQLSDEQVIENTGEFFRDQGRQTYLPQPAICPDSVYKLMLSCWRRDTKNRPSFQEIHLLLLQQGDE
- PROCEDURE DETAILS: DDR2 binding assay (LanthaScreen Europium Kinase Binding assay)
- CONDITION INFO: potency class, read-out: Ki DDR2
pKi: −log10 of the molar value.
Listing: pKi of selected compounds

Recorded results for 5 compounds are shown here.
CN(C)[C@@H]1CCN(Cc2cc(NC(=O)c3csc4c3CCN(Cc3cnc(N)nc3)C4)cc(C(F)(F)F)c2)C1 [Example 50] : > 7.60
O=C(Nc1cc(F)cc(C(F)(F)F)c1)c1csc2c1CCN(Cc1cncnc1)C2 [Example 4] : > 7.60
Cn1cncc1C(=O)N1CCc2c(C(=O)Nc3cc(F)cc(C(F)(F)F)c3)csc2C1 [Example 49] : > 7.60
Nc1ncc(CN2CCc3c(C(=O)Nc4cccc(C(F)(F)F)c4)csc3C2)cn1 [Example 28] : > 7.60
CC(C)(c1cc(NC(=O)c2csc3c2CCN(Cc2cncnc2)C3)no1)C(F)(F)F [Example 6] : > 7.60

(Q) Which pKi is listed for CN(C)Cc1ccc(NC(=O)c2csc3c2CCN(Cc2cnc(N)nc2)C3)cc1C(F)(F)F [Example 56] ?
(A) 7.30 to 7.60

(Q) Which pKi is listed for CN(C)[C@@H]1CCN(Cc2cc(NC(=O)c3csc4c3CCN(Cc3cncnc3C(C)(C)F)C4)cc(C(F)(F)F)c2)C1 [Example 51] ?
(A) 7.30 to 7.60

(Q) Which pKi is listed for N#Cc1cc(NC(=O)c2csc3c2CCN(Cc2cnc(N)nc2)C3)cc(C(F)(F)F)c1 [Example 59] ?
(A) > 7.60

(Q) Which pKi is listed for O=C(Nc1cccc(C(F)(F)F)c1)c1csc2c1CCN(Cc1cncc(Cl)c1)C2 [Example 20] ?
(A) > 7.60

(Q) Which pKi is listed for Nc1ncc(CN2CCc3c(C(=O)Nc4cncc(C(F)(F)F)c4)csc3C2)cn1 [Example 35] ?
(A) 7.30 to 7.60

(Q) Which pKi is listed for O=C(Nc1cc(C(F)(F)F)ccc1F)c1csc2c1CCN(Cc1cncnc1)C2 [Example 11] ?
(A) > 7.60

(Q) Which pKi is listed for COCC(=O)Nc1ccncc1CN1CCc2c(C(=O)Nc3cccc(C(F)(F)F)c3)csc2C1 [Example 17] ?
(A) 7.30 to 7.60

Origin of values: patent US20240199635A1
